studyTarget: NT-3 growth factor receptor (Homo sapiens) (UniProt Q16288);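 also: mean percent inhibition of TRKC, reported within the GSK PKIS dataset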
Sequence (Q16288 32-839 limits assumed): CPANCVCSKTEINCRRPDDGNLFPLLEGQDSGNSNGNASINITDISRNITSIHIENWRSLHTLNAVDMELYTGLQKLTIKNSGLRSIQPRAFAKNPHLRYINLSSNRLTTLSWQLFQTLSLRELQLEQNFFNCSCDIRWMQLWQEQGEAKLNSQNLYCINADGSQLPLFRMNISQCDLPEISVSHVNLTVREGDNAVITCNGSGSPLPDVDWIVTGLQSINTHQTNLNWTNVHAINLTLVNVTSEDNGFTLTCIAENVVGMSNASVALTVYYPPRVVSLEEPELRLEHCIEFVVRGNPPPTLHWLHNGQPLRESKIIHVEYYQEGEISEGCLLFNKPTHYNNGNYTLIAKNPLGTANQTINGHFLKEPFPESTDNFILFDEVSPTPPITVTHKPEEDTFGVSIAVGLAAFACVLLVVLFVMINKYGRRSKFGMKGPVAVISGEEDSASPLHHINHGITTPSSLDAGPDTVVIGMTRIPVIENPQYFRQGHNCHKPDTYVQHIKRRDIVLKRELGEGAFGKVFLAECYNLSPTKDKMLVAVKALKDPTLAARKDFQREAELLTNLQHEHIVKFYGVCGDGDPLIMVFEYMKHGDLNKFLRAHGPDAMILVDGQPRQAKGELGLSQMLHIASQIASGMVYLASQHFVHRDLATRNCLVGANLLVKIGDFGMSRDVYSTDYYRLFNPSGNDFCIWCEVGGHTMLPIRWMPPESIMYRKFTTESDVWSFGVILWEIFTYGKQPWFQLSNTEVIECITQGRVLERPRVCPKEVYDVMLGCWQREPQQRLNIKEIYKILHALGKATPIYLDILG
studyConditions: at 0.1 µM
# label = MET if inhibition >= 3% else NOT MET

// known answers, use as guide
CCC(=O)Nc1ccc(C)c(-c2ccc(C(=O)NCC3CC3)cc2)c1 : NOT MET
CN(c1ccc(NC(=O)Nc2c(Cl)cccc2Cl)cc1)c1ccnc(Nc2cccc(CS(C)(=O)=O)c2)n1 : MET
O=C(Nc1n[nH]c2cc(-c3cc(F)ccc3F)ccc12)C1CC1 : MET
CNC(=O)c1cncc(/C=C/c2c(C)cccc2C)c1 : NOT MET
CS(=O)(=O)CCNCc1cc(-c2cc3c(Nc4ccc(OCc5cccc(F)c5)c(Cl)c4)ncnc3s2)cs1 : MET
COc1cc(Nc2ncc3c(C)nc(-c4cccc(Oc5ccccc5)c4)n3n2)cc(OC)c1OC : NOT MET
C#Cc1cccc(Nc2ncnc3ccc(OCCCCNCCS(C)(=O)=O)cc23)c1 : MET
COc1cccc(-n2cnc3c(N/N=C/c4ccncc4)ncnc32)c1 : NOT MET

Now turn to the next compound.
## Input Identify whether the reported inhibition of the following compound is 3% or greater: `Fc1ccc(-c2ncn(C3CCNCC3)c2-c2ccnc(Oc3ccc(F)c(F)c3)n2)cc1`
## Output NOT MET

----------
Parameter inhibition: see the listing below.
studyTarget: Protein-tyrosine kinase 2-beta (Homo sapiens);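 also: reported as mean percent inhibition of PYK2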
studyConditions: at 0.1 µM
Express the result in % but write the number alone.

# annotated cases, reported inhibition shown
NC(=O)c1cc(-c2ccncc2)cc(-c2ccccc2)c1N : 10.8
CCC(=O)Nc1ccc(C)c(-c2ccc(C(=O)NCC3CC3)cc2)c1 : 11.8
COc1cccc(-n2cnc3c(N/N=C/c4ccncc4)ncnc32)c1 : -4.12
COc1cc2ncn(-c3cc(OCc4cccs4)c(C(N)=O)s3)c2cc1OC : 3.08
O=C(Nc1n[nH]c2cc(-c3cc(F)ccc3F)ccc12)C1CC1 : 9.57

We now examine a further compound.
Form: compound = `Clc1ccc(CNc2nccc(-c3cnn4ncccc34)n2)cc1` ; inhibition = -4.51

----------
# Lookup of reported inhibition keyed by entry
studyTarget: Epidermal growth factor receptor (Homo sapiens) (UniProt P00533)
Sequence (P00533 whole entry): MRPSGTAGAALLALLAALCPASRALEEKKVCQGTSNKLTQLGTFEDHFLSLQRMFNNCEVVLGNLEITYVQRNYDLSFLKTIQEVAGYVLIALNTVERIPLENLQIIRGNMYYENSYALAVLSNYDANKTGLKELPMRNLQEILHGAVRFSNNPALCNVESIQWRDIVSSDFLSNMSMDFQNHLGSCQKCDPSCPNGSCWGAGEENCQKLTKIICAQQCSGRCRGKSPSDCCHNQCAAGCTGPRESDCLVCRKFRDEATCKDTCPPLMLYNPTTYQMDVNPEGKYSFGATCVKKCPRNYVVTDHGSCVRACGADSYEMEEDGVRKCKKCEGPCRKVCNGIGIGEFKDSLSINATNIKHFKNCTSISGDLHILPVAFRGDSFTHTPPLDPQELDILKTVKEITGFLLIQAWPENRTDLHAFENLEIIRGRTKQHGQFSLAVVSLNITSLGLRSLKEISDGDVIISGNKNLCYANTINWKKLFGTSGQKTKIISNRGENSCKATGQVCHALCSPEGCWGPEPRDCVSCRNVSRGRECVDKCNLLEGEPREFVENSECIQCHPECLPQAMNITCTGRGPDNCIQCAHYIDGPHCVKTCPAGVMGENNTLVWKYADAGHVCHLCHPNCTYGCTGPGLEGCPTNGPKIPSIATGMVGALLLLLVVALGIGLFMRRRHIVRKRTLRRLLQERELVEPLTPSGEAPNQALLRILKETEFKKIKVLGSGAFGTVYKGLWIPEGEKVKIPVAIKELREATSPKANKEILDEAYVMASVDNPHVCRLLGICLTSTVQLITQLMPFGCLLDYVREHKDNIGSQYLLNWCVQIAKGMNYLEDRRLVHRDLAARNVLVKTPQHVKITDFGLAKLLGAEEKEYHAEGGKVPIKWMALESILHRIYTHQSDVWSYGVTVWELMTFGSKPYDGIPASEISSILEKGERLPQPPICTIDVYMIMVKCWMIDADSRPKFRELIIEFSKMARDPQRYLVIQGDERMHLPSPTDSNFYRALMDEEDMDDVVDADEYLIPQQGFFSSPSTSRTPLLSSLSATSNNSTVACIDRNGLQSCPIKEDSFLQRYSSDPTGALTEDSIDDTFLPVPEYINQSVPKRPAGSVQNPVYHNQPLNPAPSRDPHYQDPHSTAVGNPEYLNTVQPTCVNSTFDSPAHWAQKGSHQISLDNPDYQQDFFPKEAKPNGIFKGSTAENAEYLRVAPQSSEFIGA
studyConditions: at 0.1 µM
Description: GSK_PKIS: EGFR mean inhibition at 0.1 uM [Nanosyn]
Respond with the bare value in %.

Examples with answers:
CCC(=O)Nc1ccc(C)c(-c2ccc(C(=O)NCC3CC3)cc2)c1 : 6.56
Fc1ccc(-c2ncn(C3CCNCC3)c2-c2ccnc(Oc3ccc(F)c(F)c3)n2)cc1 : -3.12
Fc1ccc(-c2c(-c3ccncc3)nc3n2CCS3)cc1 : -4.84

The reported inhibition of the compound `CN(C)c1ccc2c(c1)/C(=C/Nc1ccc(S(N)(=O)=O)cc1)C(=O)N2` was 9.33

Data point: `COc1cc2ncn(-c3cc(OCc4ccccc4C(F)(F)F)c(C(C)=O)s3)c2cc1OC` ; inhibition = -0.8

Looking up `CN(C)CCOc1ccc(-c2cc(-c3ccc4c(c3)CCC4=NO)c(-c3ccncc3)o2)cc1` , I found its inhibition recorded as 4.94

The measured inhibition associated with `NC(=O)Cc1ccccc1Oc1nccc(-c2c(-c3ccc(F)cc3)ncn2C2CCNCC2)n1` reads 2.22

----------
studyTarget: Serine/threonine-protein kinase B-raf (Homo sapiens);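 also: reported value is the mean percent inhibition of BRAF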
studyConditions: at 1 µM
Reported inhibition is given for each of the following compounds.

COc1cc(Nc2ncc(-c3ccccc3)o2)cc(OC)c1OC : -1.94%
CCS(=O)(=O)c1ccc(OC)c(Nc2ncc(-c3cccc(-c4ccccc4F)c3)o2)c1 : 1.46%
c1ccc(Oc2ccc(Nc3ncc(-c4ccccc4)o3)cc2)cc1 : 1.47%
NS(=O)(=O)c1ccc(N/N=C2\C(=O)Nc3ccc(-c4cnco4)cc32)cc1 : 5.71%

Consider now this further compound.
// `C/C(Nc1ccc(S(N)(=O)=O)cc1)=C1/C(=O)Nc2ccccc21` : inhibition value = 0.23%
